assay: Solubility; type: physicochemical; details: Table I
Metric: solubility

> print(dat)
                                   molecule  data.value
1  CC(=O)NCCCc1cc(-c2c[nH]c3ncc(-c4cnn(C(C)C)c4)cc23)nc(N)n1 [reference compound]  > 46 µg/mL
2  CC(C)n1cc(-c2cnc3[nH]cc(-c4cc(C5(O)CCCC5)nc(N)n4)c3c2)cn1 [reference compound]     8 µg/mL
3  Cn1cc(-c2cnc3[nH]cc(-c4cc(N(CCO)c5ccccc5)nc(N)n4)c3c2)cn1     1 µg/mL
4  Cn1cc(-c2cnc3[nH]cc(-c4cc(C5(c6ccccc6)CCCC5)nc(N)n4)c3c2)cn1   < 1 µg/mL
5  CC(C)n1cc(-c2cnc3[nH]cc(-c4cc(C(C)(O)c5ccccc5)nc(N)n4)c3c2)cn1 (centres unmarked) [reference compound]   < 1 µg/mL
